# System: IGROV1 ovarian
# assayExplanation: NCI tumour cell line growth inhibition, 48 h
Listing of recorded TGI by entry.

Field: example entries. Status: answers known.
Prompt line: Requested field: TGI. Item: CC[C@]12C=CCN3CCC4(c5cc([C@@]6(C(=O)OC)CC7CN(CCc8c6[nH]c6ccccc86)C[C@@H]6CCC[C@H]76)c(OC)cc5N(C)C4[C@](O)(C(=O)OC)C1OC(C)=O)C32 (stereo not given in full)
Response line: 7.31 µM

Prompt line: Try this compound too: N#Cc1c2nc3ccccc3nc2n2ccc3ccccc3c12
Response line: > 100 µM

Prompt line: Also O=C(O)CNS(=O)(=O)c1ccc(NC(=O)Nc2ccccc2)cc1 ?
Response line: > 54.4 µM

More entries:
Prompt line: Quick one: TGI of CCCCCCCC/C=C/CCCCCCCC1CC(O)C(=O)O1 (stereo not given) ?
Response line: > 100 µM

Prompt line: Then what about the compound Nc1ccc(N)c2c1C(=O)c1c(N)ccc(N)c1C2=O ?
Response line: > 100 µM

Prompt line: Another compound to look at: NC[C@@](O)(c1ccc(Cl)cc1)c1ccc(-c2cn[nH]c2)cc1
Response line: 1.46 µM

Prompt line: And CC1(C)OC(=O)C(=C2CC(c3ccccc3)c3ccccc32)C(=O)O1 (stereo not given) ?
Response line: > 100 µM

Prompt line: Same again, this time with Cn1c(=O)c2nc(N3CCCCC3)cnc2n(C)c1=O
Response line: > 100 µM

Prompt line: Please answer likewise for COc1ccc([C@@H]2CC(=O)NCCCCNCCCN2)cc1
Response line: > 100 µM

Prompt line: Query Cc1nc(C)c(N2CCN(C#N)CC2)c(=O)[nH]1 next
Response line: > 100 µM

---

# Test system: NCI-H226 lung
# assayExplanation: NCI tumour cell line growth inhibition, 48 h
resultType: TGI

Prompt line: Which TGI value belongs to CNC1C(OC2C(OC3C(O)C(O)C(O)C(O)C3O)OC(C)C2(O)CO)OC(CO)C(O)C1O (stereo not drawn) (tested in a mixture with another compound) ?
Response line: > 100 µM

---
Prompt line: Which measured TGI value corresponds to Cc1cc(-c2ccccc2)cc2[n+]1CC=C2 ?
Response line: > 100 µM

Prompt line: For Cc1ccc(S(=O)(=O)n2cc(-c3nnnn3-c3ccc(Cl)cc3)c(=O)c3ccccc32)cc1 then?
Response line: > 100 µM

---

# Tested on: NCI-H460 lung
resultType: GI50

Prompt line: I'd like to know its GI50. The compound in question is O=C(Nc1ccc(Br)cc1F)c1cc(Br)ccc1O
Response line: 500 nM

---

# Tested on: OVCAR-5 ovarian
# assayExplanation: NCI tumour cell line growth inhibition, 48 h
resultType: GI50

Some entries whose results are on file:
Prompt line: Endpoint output: GI50 of O=C(CN1CCN(c2ccc(Cl)cc2)CC1)N1CCN(c2nnc(-c3ccccc3)c(-c3ccccc3)n2)CC1 . Value?
Response line: > 100 µM

Prompt line: Then this compound: NC[C@@](O)(c1ccc(Cl)cc1)c1ccc(-c2cn[nH]c2)cc1
Response line: 8.67 µM

Prompt line: What about this compound? C=C(CN1CCN(c2cccc(F)c2)CC1)c1ccc(C(=O)Nc2ccccc2N)cc1
Response line: 2.61 µM

Prompt line: How about this compound: COc1cc(-c2cc(CCC(=O)Nc3ccccc3[N+](=O)[O-])n(-c3ccc([N+](=O)[O-])cc3[N+](=O)[O-])n2)ccc1O
Response line: > 100 µM

Prompt line: Let us now turn to Nc1nc2c(c3cnccc13)C(c1cccc(Cl)c1)Cc1cnccc1-2 (stereo not given)
Response line: 0.706 µM

Prompt line: Would you mind doing CC(=O)Nc1sc2c(c1-c1nc3ccccc3s1)CNC2 as well?
Response line: 3.05 µM

Prompt line: Record: O=C(/C=C/c1cccnc1)c1ccccc1O
Response line: 19 µM

Prompt line: Okay, and CN1CCCN(C(c2ccccc2)c2ccc(Br)cc2)CC1 (stereo not given) ?
Response line: 10.7 µM

Prompt line: What do you get for COc1cc(OC)cc(-c2cncn2-c2ccc(-c3nc4cc(OC)c(OC)c(OC)c4s3)cc2)c1 ?
Response line: > 100 µM

// below: GI50 requested for another compound
Prompt line: Need GI50, item COc1ccc(Cn2c(Br)c3c(c2-c2cc(OC)c(OC)c(OC)c2)CCc2sc(NC(C)=O)nc2-3)cc1
Response line: 4.39 µM

The reported measurements were obtained from PubChem BioAssay (NCI).
